Experiment: in vivo
Conditions: female, BALB/c, mouse, iv, 5 mg/kg, Mean plasma concentration
Starred links: 1 amine or outer side, 2 acyl side, 3 side chain; linkers in the order of their positions; H or OH if unused. Positions of bridges follow the written chain, without caps; N, C: chain ends. Non-standard residues stand in square brackets, D forms with d. Residues, ends and D or L forms follow the SMILES beside them. *: point of attachment. dAsp(3R-OH) = N[C@@H](C(=O)O)[C@@H](O)C(=O)O; X1 = NC[C@H](O)[C@@H](N[*:1])C(=O)[*:2]; X2 = CCC(C)(O)[C@H](N[*:1])C(=O)[*:2]; d(aIle) = CC[C@H](C)[C@@H](N)C(=O)O; Myristoyl = CCCCCCCCCCCCCC(=O)*; dOrn = NCCC[C@@H](N)C(=O)O; hSer = N[C@@H](CCO)C(=O)O
readoutKind: level at 4 h (ng/mL)
Entry rule: numbers only, all in ng/mL.

Query :: Please give the measured level at 4 h for this compound: CCCCCCCCCCCCCC(=O)N[C@H](CCCN)C(=O)N[C@@H](CO)C(=O)N[C@H](C(=O)N[C@@H](C(=O)N[C@@H](C(=O)N[C@@H]1C(=O)NCC(=O)N[C@@H](C(C)(O)CC)C(=O)N[C@H]([C@@H](C)CC)C(=O)N[C@@H](CCO)C(=O)N[C@@H](C)C(=O)N[C@H]([C@@H](C)CC)C(=O)N[C@@H](CCC(=O)O)C(=O)O[C@@H]1C)[C@@H](O)CN)[C@@H](O)C(=O)O)C(C)C (stereo partly drawn) [Compound 1, Turnercyclamycin A] (Myristoyl-[dOrn]SV[dAsp(3R-OH)][X1]TG[X2][d(aIle)][hSer]A[d(aIle)]E; ester 6-C)
Result :: 22500

* * *

Assay: in vivo
Settings: female, BALB/c, mouse, iv, 5 mg/kg, Mean plasma concentration
Starred links: 1 amine or outer side, 2 acyl side, 3 side chain; linkers in the order of their positions; H or OH if unused. Positions of bridges follow the written chain, without caps; N, C: chain ends. Non-standard residues stand in square brackets, D forms with d. Residues, ends and D or L forms follow the SMILES beside them. *: point of attachment. dAsp(3R-OH) = N[C@@H](C(=O)O)[C@@H](O)C(=O)O; X1 = NC[C@H](O)[C@@H](N[*:1])C(=O)[*:2]; X2 = CCC(C)(O)[C@H](N[*:1])C(=O)[*:2]; d(aIle) = CC[C@H](C)[C@@H](N)C(=O)O; Myristoyl = CCCCCCCCCCCCCC(=O)*; dOrn = NCCC[C@@H](N)C(=O)O; hSer = N[C@@H](CCO)C(=O)O
readoutKind: level at 0.5 h (ng/mL)
Entry rule: numbers only, all in ng/mL.

Query :: Please give the measured level at 0.5 h for this compound: CCCCCCCCCCCCCC(=O)N[C@H](CCCN)C(=O)N[C@@H](CO)C(=O)N[C@H](C(=O)N[C@@H](C(=O)N[C@@H](C(=O)N[C@@H]1C(=O)NCC(=O)N[C@@H](C(C)(O)CC)C(=O)N[C@H]([C@@H](C)CC)C(=O)N[C@@H](CCO)C(=O)N[C@@H](C)C(=O)N[C@H]([C@@H](C)CC)C(=O)N[C@@H](CCC(=O)O)C(=O)O[C@@H]1C)[C@@H](O)CN)[C@@H](O)C(=O)O)C(C)C (stereo partly drawn) [Compound 1, Turnercyclamycin A] (Myristoyl-[dOrn]SV[dAsp(3R-OH)][X1]TG[X2][d(aIle)][hSer]A[d(aIle)]E; ester 6-C)
Result :: 33700

* * *

Test: in vivo
Details: female, BALB/c, mouse, iv, 5 mg/kg
Starred links: 1 amine or outer side, 2 acyl side, 3 side chain; linkers in the order of their positions; H or OH if unused. Positions of bridges follow the written chain, without caps; N, C: chain ends. Non-standard residues stand in square brackets, D forms with d. Residues, ends and D or L forms follow the SMILES beside them. *: point of attachment. dAsp(3R-OH) = N[C@@H](C(=O)O)[C@@H](O)C(=O)O; X1 = NC[C@H](O)[C@@H](N[*:1])C(=O)[*:2]; X2 = CCC(C)(O)[C@H](N[*:1])C(=O)[*:2]; d(aIle) = CC[C@H](C)[C@@H](N)C(=O)O; Myristoyl = CCCCCCCCCCCCCC(=O)*; dOrn = NCCC[C@@H](N)C(=O)O; hSer = N[C@@H](CCO)C(=O)O
readoutKind: Vd (L/kg)
Entry rule: numbers only, all in L/kg.

Query :: Please give the measured Vd for this compound: CCCCCCCCCCCCCC(=O)N[C@H](CCCN)C(=O)N[C@@H](CO)C(=O)N[C@H](C(=O)N[C@@H](C(=O)N[C@@H](C(=O)N[C@@H]1C(=O)NCC(=O)N[C@@H](C(C)(O)CC)C(=O)N[C@H]([C@@H](C)CC)C(=O)N[C@@H](CCO)C(=O)N[C@@H](C)C(=O)N[C@H]([C@@H](C)CC)C(=O)N[C@@H](CCC(=O)O)C(=O)O[C@@H]1C)[C@@H](O)CN)[C@@H](O)C(=O)O)C(C)C (stereo partly drawn) [Compound 1, Turnercyclamycin A] (Myristoyl-[dOrn]SV[dAsp(3R-OH)][X1]TG[X2][d(aIle)][hSer]A[d(aIle)]E; ester 6-C)
Result :: 0.1

* * *

Assay: in vivo
Details: female, BALB/c, mouse, iv, 5 mg/kg, Mean plasma concentration
Starred links: 1 amine or outer side, 2 acyl side, 3 side chain; linkers in the order of their positions; H or OH if unused. Positions of bridges follow the written chain, without caps; N, C: chain ends. Non-standard residues stand in square brackets, D forms with d. Residues, ends and D or L forms follow the SMILES beside them. *: point of attachment. dAsp(3R-OH) = N[C@@H](C(=O)O)[C@@H](O)C(=O)O; X1 = NC[C@H](O)[C@@H](N[*:1])C(=O)[*:2]; X2 = CCC(C)(O)[C@H](N[*:1])C(=O)[*:2]; d(aIle) = CC[C@H](C)[C@@H](N)C(=O)O; Myristoyl = CCCCCCCCCCCCCC(=O)*; dOrn = NCCC[C@@H](N)C(=O)O; hSer = N[C@@H](CCO)C(=O)O
readoutKind: level at 1 h (ng/mL)
Entry rule: numbers only, all in ng/mL.

Query :: Please give the measured level at 1 h for this compound: CCCCCCCCCCCCCC(=O)N[C@H](CCCN)C(=O)N[C@@H](CO)C(=O)N[C@H](C(=O)N[C@@H](C(=O)N[C@@H](C(=O)N[C@@H]1C(=O)NCC(=O)N[C@@H](C(C)(O)CC)C(=O)N[C@H]([C@@H](C)CC)C(=O)N[C@@H](CCO)C(=O)N[C@@H](C)C(=O)N[C@H]([C@@H](C)CC)C(=O)N[C@@H](CCC(=O)O)C(=O)O[C@@H]1C)[C@@H](O)CN)[C@@H](O)C(=O)O)C(C)C (stereo partly drawn) [Compound 1, Turnercyclamycin A] (Myristoyl-[dOrn]SV[dAsp(3R-OH)][X1]TG[X2][d(aIle)][hSer]A[d(aIle)]E; ester 6-C)
Result :: 29300

* * *

Assay: in vivo
Conditions: female, BALB/c, mouse, iv, 5 mg/kg, Mean plasma concentration
Starred links: 1 amine or outer side, 2 acyl side, 3 side chain; linkers in the order of their positions; H or OH if unused. Positions of bridges follow the written chain, without caps; N, C: chain ends. Non-standard residues stand in square brackets, D forms with d. Residues, ends and D or L forms follow the SMILES beside them. *: point of attachment. dAsp(3R-OH) = N[C@@H](C(=O)O)[C@@H](O)C(=O)O; X1 = NC[C@H](O)[C@@H](N[*:1])C(=O)[*:2]; X2 = CCC(C)(O)[C@H](N[*:1])C(=O)[*:2]; d(aIle) = CC[C@H](C)[C@@H](N)C(=O)O; Myristoyl = CCCCCCCCCCCCCC(=O)*; dOrn = NCCC[C@@H](N)C(=O)O; hSer = N[C@@H](CCO)C(=O)O
readoutKind: level at 24 h (ng/mL)
Entry rule: numbers only, all in ng/mL.

Query :: Please give the measured level at 24 h for this molecule: CCCCCCCCCCCCCC(=O)N[C@H](CCCN)C(=O)N[C@@H](CO)C(=O)N[C@H](C(=O)N[C@@H](C(=O)N[C@@H](C(=O)N[C@@H]1C(=O)NCC(=O)N[C@@H](C(C)(O)CC)C(=O)N[C@H]([C@@H](C)CC)C(=O)N[C@@H](CCO)C(=O)N[C@@H](C)C(=O)N[C@H]([C@@H](C)CC)C(=O)N[C@@H](CCC(=O)O)C(=O)O[C@@H]1C)[C@@H](O)CN)[C@@H](O)C(=O)O)C(C)C (stereo partly drawn) [Compound 1, Turnercyclamycin A] (Myristoyl-[dOrn]SV[dAsp(3R-OH)][X1]TG[X2][d(aIle)][hSer]A[d(aIle)]E; ester 6-C)
Result :: 931
